assay explanation: chemical genetic growth profiling, strain panel (AID 1159580);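 further: tested at 20 µM; growth read once vehicle control cultures reached saturation at 30 °C; 1 = growth at the plate median or of vehicle wells; lower values mean less growth of the strain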
measurement context: S. cerevisiae deletion strains, growth OD, locus YAR019C, strain CDC15, active compounds read low
Hit rate of the full screen: of about 5,500 compounds, about 2,000 (36%) were called active. Inconclusive results (about 18%) are left out. Some of the results follow.
Measured normalized growth of individual entries

{"compound": "CCn1nc(C)cc1-c1nnc(Sc2ncc([N+](=O)[O-])s2)n1C", "normalized growth": "0.964 (inactive)"}

Sample CCC(C)COC(=O)/C=C/c1ccc(N=Cc2ccc(OC)cc2)cc1 (stereo not drawn) — what was its normalized growth?
0.961 (inactive)

Fill in the blank: the reported normalized growth of `N=c1ccc2nc3c(Cl)c4c(c(Cl)c3oc-2c1S(=O)(=O)O)Nc1ccc(N)c(S(=O)(=O)O)c1O4` is ____.
1.01 (inactive)

---

assay explanation: chemical genetic growth profiling, strain panel (AID 1159580);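 further: tested at 20 µM; growth read once vehicle control cultures reached saturation at 30 °C; 1 = growth at the plate median or of vehicle wells; lower values mean less growth of the strain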
measurement context: S. cerevisiae deletion strains, growth OD, locus YJL187C, strain SWE1
About 2,000 (36%) of roughly 5,500 compounds were called active. Not shown: some 18% with an inconclusive outcome. No stated cut-off is given here; in the data, active means normalized growth mostly below about 0.91 (no sharp cut-off); inconclusive means no clear call, values can overlap the other calls; inactive means mostly above about 0.92. The list shows a part of the results.
A correct response names exactly one class from Yes (active), No (inactive)

{"molecule": "C=CCn1c(Sc2ncc([N+](=O)[O-])s2)n[nH]c1=O", "group": "No"}
{"molecule": "CCn1cc(C(=O)O)c(=O)c2cc(F)c(N3CCNCC3)cc21", "group": "No"}
{"molecule": "CC1(C)O[C@@H]2CC3C4CCC5=CC(=O)C=C[C@]5(C)[C@@]4(F)[C@@H](O)C[C@]3(C)[C@]2(C(=O)CO)O1 (stereo partly drawn)", "group": "No"}
{"molecule": "COc1ccc(-c2cc(=O)c3ccccc3o2)cc1OC", "group": "Yes"}
{"molecule": "NCCc1ccc(O)cc1", "group": "No"}
{"molecule": "CC(=O)O.CC(=O)O.[Cd]", "group": "Yes"}
{"molecule": "CCCCCCCCCc1ccc(O)cc1", "group": "Yes"}

// next entry
Test call, this molecule: `O=C(O)c1cn(-c2ccc(F)cc2)c2cc(N3CCNCC3)c(F)cc2c1=O`
No

---

assay explanation: chemical genetic growth profiling, strain panel (AID 1159580);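 further: tested at 20 µM; growth read once vehicle control cultures reached saturation at 30 °C; 1 = growth at the plate median or of vehicle wells; lower values mean less growth of the strain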
measurement context: S. cerevisiae deletion strains, growth OD, locus YER015W, strain faa2
Screen size: about 5,500 compounds; about 2,000 (36%) were called active. About 18% were inconclusive and are not listed. Cut-off read from the data, not from the text of the source: active = normalized growth mostly below about 0.91 (no sharp cut-off); inconclusive = no clear call, values can overlap the other calls; inactive = mostly above about 0.92. The list shows a part of the results.
Log the outcome using a class from 1 (active), -1 (inactive)

{"compound": "NC(=O)CC[C@@H](N)C(=O)O", "group": -1}
{"compound": "CC(=O)Oc1c(-c2ccccc2)oc2c(CC=C(C)C)c3c(c(OC(C)=O)c2c1=O)C=CC(C)(C)O3", "group": 1}
{"compound": "COc1ccc(-c2cc(=O)c3cc(OC)ccc3o2)cc1", "group": -1}
{"compound": "CC(=O)N(O)CCCCCNC(=O)CCC(=O)N(O)CCCCCNC(=O)CCC(=O)N(O)CCCCCN", "group": -1}
{"compound": "Nc1nc(N)c2nc(-c3ccccc3)c(N)nc2n1", "group": -1}

// param item: `C[N+]1(CCCCC[N+]2(C)CCCC2)CCCC1` ; yields the recorded call
-1

# outcome recorded in this test, key = `COc1cc2c(cc1OC)-c1cc3ccc(OC)c(OC)c3c[n+]1CC2`
-1

Which result was noted for this compound in the test: `CC1=NCCc2c1[nH]c1cc(O)ccc21`
-1

Dear all, I need the recorded test outcome for CC(=O)OCC(=O)[C@H]1CCC2C3CC=C4C[C@@H](O)CC[C@]4(C)C3CC[C@@]21C (stereo not given in full) , thank you.
-1

Could you please tell me the result logged for `C[n+]1cc2c3c(ccc2c2ccc4cc5c(cc4c21)OCO5)OCO3` in this assay?
1
